Species on record: Rattus norvegicus
Test: Open TG-GATES - Regimen: Single
Format: toxicity, organism-based, Sprague-Dawley
Parameters: regimen Single, gender Male, age 6 weeks
Details: in vivo, po, 0 mg/kg, 24 h, tissue Plasma, route gavage, dose level Control
Please respond with reported Na for every item in the list.
# unit: meq/L | format: bare number

Challenge: If you can, please state the reported Na value of "CCOC(=O)[C@H](CCc1ccccc1)N[C@@H](C)C(=O)N1CCC[C@H]1C(=O)O" .
Response given: 141

Challenge: Check O=[N+]([O-])c1ccc2c(c1)Cc1ccccc1-2 [2-NITROFLUORENE] too.
Response given: 141.1

Challenge: Check CC(=O)Nc1nnc(S(N)(=O)=O)s1 [ACETAZOLAMIDE] too.
Response given: 141.6

Challenge: Check CN(C)[C@@H]1C(O)=C(C(N)=O)C(=O)[C@@]2(O)C(O)=C3C(=O)c4c(O)cccc4[C@@](C)(O)[C@H]3C[C@@H]12 [TETRACYCLINE] too.
Response given: 140.2

Challenge: Check C#C[C@]1(O)CC[C@H]2[C@@H]3CCC4=Cc5oncc5C[C@]4(C)[C@H]3CC[C@@]21C [DANAZOL] too.
Response given: 142.2

Challenge: Check Clc1c(Cl)c(Cl)c(Cl)c(Cl)c1Cl [PERCHLOROBENZENE] too.
Response given: 141.2

Challenge: Check COc1cc([C@@H]2c3cc4c(cc3[C@@H](O[C@@H]3O[C@@H]5CO[C@@H](C)O[C@H]5[C@H](O)[C@H]3O)[C@H]3COC(=O)[C@H]23)OCO4)cc(OC)c1O [ETOPOSIDE] too.
Response given: 141.4

Challenge: Check Cc1cccc(Nc2ccccc2C(=O)O)c1C [MEFENAMIC ACID] too.
Response given: 140.2

Challenge: Check CN1C(C(=O)Nc2ccccn2)=C(O)c2sc(Cl)cc2S1(=O)=O [LORNOXICAM] too.
Response given: 141.4

Challenge: Check CC(CN1c2ccccc2Sc2ccccc21)N(C)C (stereo unspecified) [PROMETHAZINE] too.
Response given: 142.4

Challenge: Check C1CCC(C(CC2CCCCN2)C2CCCCC2)CC1 (stereo unspecified) [PERHEXILINE] too.
Response given: 141.6

* * *

Please respond with reported KIDNEY_TOTAL for every item in the list.
Organism: Rattus norvegicus
Test: Open TG-GATES - Regimen: Single
Format: toxicity, organism-based, Sprague-Dawley
Parameters: regimen Single, gender Male, age 6 weeks
Conditions: in vivo, po, 0 mg/kg, 6 h, tissue Kidney, route gavage, dose level Control
# unit: g | format: bare number

Challenge: If you can, please state the reported KIDNEY_TOTAL value of COc1cc([C@@H]2c3cc4c(cc3[C@@H](O[C@@H]3O[C@@H]5CO[C@@H](C)O[C@H]5[C@H](O)[C@H]3O)[C@H]3COC(=O)[C@H]23)OCO4)cc(OC)c1O [ETOPOSIDE] .
Response given: 1.8

Challenge: Check CC(=O)Nc1nnc(S(N)(=O)=O)s1 [ACETAZOLAMIDE] too.
Response given: 1.9

Challenge: Check CN(C)[C@@H]1C(O)=C(C(N)=O)C(=O)[C@@]2(O)C(O)=C3C(=O)c4c(O)cccc4[C@@](C)(O)[C@H]3C[C@@H]12 [TETRACYCLINE] too.
Response given: 1.7

Challenge: Check C#C[C@]1(O)CC[C@H]2[C@@H]3CCC4=Cc5oncc5C[C@]4(C)[C@H]3CC[C@@]21C [DANAZOL] too.
Response given: 1.9

Challenge: Check "CCOC(=O)[C@H](CCc1ccccc1)N[C@@H](C)C(=O)N1CCC[C@H]1C(=O)O" too.
Response given: 1.9

Challenge: Check Clc1c(Cl)c(Cl)c(Cl)c(Cl)c1Cl [PERCHLOROBENZENE] too.
Response given: 2

Challenge: Check C1CCC(C(CC2CCCCN2)C2CCCCC2)CC1 (stereo not given) [PERHEXILINE] too.
Response given: 1.9

Challenge: Check CC(CN1c2ccccc2Sc2ccccc21)N(C)C (stereo not given) [PROMETHAZINE] too.
Response given: 2

Challenge: Check Cc1cccc(Nc2ccccc2C(=O)O)c1C [MEFENAMIC ACID] too.
Response given: 2

Challenge: Check CN1C(C(=O)Nc2ccccn2)=C(O)c2sc(Cl)cc2S1(=O)=O [LORNOXICAM] too.
Response given: 1.9

All figures here come from ChEMBL document CHEMBL3885861.
